# Experiment description: NFAT Signaling Pathway (AID 444);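 further: carbachol stimulus at about its EC50 of 1 µM final; on the % scale 0 is the no-effect control and ±100 the full control effect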
# Test conditions: Jurkat NFAT-bla M1, carbachol, beta-lactamase ratio, 5 h; at 7.69 µM (top of the series) unless noted
Results filed as inconclusive are left out. Active and inactive are the calls of the source. The call rests on the fitted dose curve; in most records, active means well fitted curve in either direction with a large enough effect (not every such curve was filed as active); inconclusive means small, poorly fitted or top-dose-only effect, or another doubt; inactive means flat fitted curve, though single readings scatter.
Kindly state activity change, negative = inhibition for each of the entries shown.

GET /value?item= Cc1[nH]c(N)nc(=S)c1CCC(=O)O &field=activity change, negative = inhibition returns 1.85% (inactive)

The compound CN[C@@H](CC(C)C)C(=O)N[C@@H]1C(=O)N[C@H](CC(N)=O)C(=O)N[C@H]2C(=O)N[C@H]3C(=O)N[C@H](C(=O)N[C@H](C(=O)O)c4cc(O)cc(O)c4-c4cc3ccc4O)[C@H](O)c3ccc(c(Cl)c3)Oc3cc2cc(c3O[C@@H]2O[C@@H](CO)[C@@H](O)[C@@H](O)[C@H]2O[C@H]2C[C@](C)(N)[C@H](O)[C@H](C)O2)Oc2ccc(cc2Cl)[C@@H]1O showed activity change, negative = inhibition equal to 0.625% [at 38 µM] (inactive)

The measured activity change, negative = inhibition associated with CCCCn1cnc2c(c(CC#N)nn2-c2ccccc2)c1=N reads -1.01% (inactive)

Just so you know, measured activity change, negative = inhibition for O=c1c(CCc2ccccc2)nc2cnc(Oc3ccccc3)nc2n1C[C@H]1CCCO1 came out at -10.8% (inactive)

Quick note, activity change, negative = inhibition for c1ccc2c(CSCc3cccc4ccccc34)cccc2c1 landed at -28.7% (inactive)

Reported activity change, negative = inhibition ( CC(C)(N)CO[C@H]1C[C@H]2CC[C@@]1(C)C2(C)C ) = 3.38% (inactive)

The compound identified as CN(C)Cc1ccc(O)c(CN(C)C)n1 registered its activity change, negative = inhibition at 4.31% (inactive)
